target: eIF-2-alpha kinase GCN2 (Homo sapiens); test: Inhibition of human GCN2 (unknown origin)
Sequence (Q9P2K8 whole entry): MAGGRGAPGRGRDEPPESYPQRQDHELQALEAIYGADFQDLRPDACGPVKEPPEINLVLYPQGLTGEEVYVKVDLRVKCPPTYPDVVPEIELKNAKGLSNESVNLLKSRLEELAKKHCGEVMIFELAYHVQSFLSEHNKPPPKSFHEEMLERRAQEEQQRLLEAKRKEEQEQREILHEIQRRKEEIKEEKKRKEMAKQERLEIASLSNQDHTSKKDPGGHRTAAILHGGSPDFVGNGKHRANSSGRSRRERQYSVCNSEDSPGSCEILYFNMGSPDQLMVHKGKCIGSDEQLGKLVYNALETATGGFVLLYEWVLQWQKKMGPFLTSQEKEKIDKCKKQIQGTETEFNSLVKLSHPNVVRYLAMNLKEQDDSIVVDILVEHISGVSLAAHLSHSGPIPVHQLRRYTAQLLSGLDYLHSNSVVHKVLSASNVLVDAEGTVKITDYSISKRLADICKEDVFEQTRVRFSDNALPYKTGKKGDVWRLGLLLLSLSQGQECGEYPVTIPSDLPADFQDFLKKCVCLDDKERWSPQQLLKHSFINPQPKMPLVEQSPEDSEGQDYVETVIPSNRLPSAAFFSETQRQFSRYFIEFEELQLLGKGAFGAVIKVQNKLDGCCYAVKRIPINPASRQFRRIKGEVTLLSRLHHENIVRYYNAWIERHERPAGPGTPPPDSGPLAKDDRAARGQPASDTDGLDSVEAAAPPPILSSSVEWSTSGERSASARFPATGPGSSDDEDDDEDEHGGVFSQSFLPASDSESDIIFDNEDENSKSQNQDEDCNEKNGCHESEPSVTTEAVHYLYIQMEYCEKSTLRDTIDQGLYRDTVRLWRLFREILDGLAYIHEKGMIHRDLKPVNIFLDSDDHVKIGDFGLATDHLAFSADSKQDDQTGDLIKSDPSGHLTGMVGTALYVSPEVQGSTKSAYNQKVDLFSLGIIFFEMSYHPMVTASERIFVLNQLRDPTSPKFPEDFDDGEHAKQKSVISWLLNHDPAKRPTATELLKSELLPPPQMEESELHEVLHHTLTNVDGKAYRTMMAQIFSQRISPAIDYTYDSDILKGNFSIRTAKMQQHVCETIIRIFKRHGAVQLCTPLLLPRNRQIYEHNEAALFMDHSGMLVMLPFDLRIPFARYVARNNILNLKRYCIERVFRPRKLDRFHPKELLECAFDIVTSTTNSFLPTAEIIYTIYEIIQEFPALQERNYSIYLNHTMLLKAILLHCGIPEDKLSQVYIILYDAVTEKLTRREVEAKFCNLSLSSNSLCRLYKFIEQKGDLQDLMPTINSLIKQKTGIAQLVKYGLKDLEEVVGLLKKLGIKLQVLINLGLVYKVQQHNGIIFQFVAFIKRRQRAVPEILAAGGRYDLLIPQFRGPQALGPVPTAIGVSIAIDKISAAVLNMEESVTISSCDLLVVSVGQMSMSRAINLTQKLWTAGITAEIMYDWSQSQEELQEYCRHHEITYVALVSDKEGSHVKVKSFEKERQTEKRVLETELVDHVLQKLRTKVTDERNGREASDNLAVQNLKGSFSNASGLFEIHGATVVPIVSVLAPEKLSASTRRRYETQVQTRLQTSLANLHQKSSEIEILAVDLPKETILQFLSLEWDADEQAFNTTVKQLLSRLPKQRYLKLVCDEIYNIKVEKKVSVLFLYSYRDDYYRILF
readout: pIC50
Remember the convention: pIC50 equals -log10 of concentration in molar.

Reported pIC50 for CCOc1ccc(-n2nnc3cnc(Nc4cnn(C5CCOCC5)c4)nc32)cc1 was 7.80

* * *

target: eIF-2-alpha kinase GCN2 (Homo sapiens); experiment: Inhibition of human recombinant GCN2 using eIF2alpha as substrate
readout: pIC50
Remember the convention: pIC50 equals -log10 of concentration in molar.

Reported pIC50 for COc1ccc(-n2nnc3cnc(Nc4ccc(N)c(C)c4)nc32)cc1 was 8.40
